inhibition at 25 ppm values for the compounds below.
test system: Parastagonospora nodorum; experiment: Antifungal activity against Phaeosphaeria nodorum on wheat plant at 25 ppm after 24 hr; type: functional
Answer with the number, then the unit.

compound=CCOc1c(OC)ccc2c(CC)c3[n+](cc12)CCc1cc2c(cc1-3)OCO2.[Cl-] reported_property="inhibition at 25 ppm" value_reported=0%

Query: Fill in: inhibition at 25 ppm of `CCCCc1c2[n+](cc3c(OC)c(OC)ccc13)CCc1cc(OC)c(OC)cc1-2.[Cl-]` is ___
Result: 0%

Query: Fill in: inhibition at 25 ppm of `COc1ccc2c(C)c3[n+](cc2c1OC)CCc1cc2c(cc1-3)OCO2.[Cl-]` is ___
Result: 0%

Query: Fill in: inhibition at 25 ppm of `COc1ccc2c(c1OC)CN1CCc3cc4c(cc3[C@@H]1[C@@H]2C)OCO4.Cl` is ___
Result: 0%

Query: Fill in: inhibition at 25 ppm of `CCCc1c2[n+](cc3c(OC)c(OC)ccc13)CCc1cc(OC)c(OC)cc1-2.[Cl-]` is ___
Result: 0%

Query: Fill in: inhibition at 25 ppm of `CCCCc1c2[n+](cc3c(OC)c(OC)ccc13)CCc1cc3c(cc1-2)OCO3.[Cl-]` is ___
Result: 0%

Query: Fill in: inhibition at 25 ppm of COc1cc2c(cc1OC)-c1cc3ccc(OC)c(OC)c3c[n+]1CC2.[Cl-] [PALMATINE CHLORIDE] is ___
Result: 0%

Query: Fill in: inhibition at 25 ppm of `CCOc1c(OC)ccc2cc3[n+](cc12)CCc1cc2c(cc1-3)OCO2.[Cl-]` is ___
Result: 0%

Data provenance: ChEMBL document CHEMBL3046565
